Test: Clinical pharmacokinetics: distribution and elimination
Details: human, in vivo; read-out: Volume of distribution at steady state
READOUT TYPE: Vd

Vd for "COC(=O)N1CCN(Cc2cccc(NC(=O)Nc3ccc(C)nc3)c2F)CC1" is 4.8 to 6.6 L/kg

====

Type: in vivo
Conditions: human, plasma, oral, at 6 weeks; patients not taking digoxin; read-out: Omecamtiv mecarbil PK value (plasma concentration), median
READOUT TYPE: concentration at 6 weeks (ng/mL)
Please respond with the number in ng/mL and leave the unit unwritten.

The compound listed as "COC(=O)N1CCN(Cc2cccc(NC(=O)Nc3ccc(C)nc3)c2F)CC1" shows concentration at 6 weeks equal to 280

====

Assay type: in vivo
Conditions: human, plasma, oral, at 6 weeks; patients taking digoxin; read-out: Omecamtiv mecarbil PK value (plasma concentration), median
READOUT TYPE: concentration at 6 weeks (ng/mL)
Respond with the bare value in ng/mL.

The recorded concentration at 6 weeks for "COC(=O)N1CCN(Cc2cccc(NC(=O)Nc3ccc(C)nc3)c2F)CC1" is 286

====

Test: Clinical pharmacokinetics: distribution and elimination
Details: human, in vivo; patients with heart failure; read-out: Median half-life
READOUT TYPE: half-life

# half-life of "COC(=O)N1CCN(Cc2cccc(NC(=O)Nc3ccc(C)nc3)c2F)CC1" = 23 to 32 h

====

Test: Clinical pharmacokinetics: distribution and elimination
Conditions: human, in vivo, oral; read-out: Mean renal clearance (converted)
READOUT TYPE: CL renal
The reply should read as a number followed by its unit.

Record "COC(=O)N1CCN(Cc2cccc(NC(=O)Nc3ccc(C)nc3)c2F)CC1" . Reported CL renal: 16.7 mL/min
